Source: patent US6410558B1

Tested on: Gaeumannomyces graminis var. tritici (Ggt)
Test Description: In vitro Assay: mycelial growth of Ggt on minimal media agar plates containing test compound
Type: cell-based
Test Context: Gaeumannomyces graminis; 1 ppm in minimal media agar; dark, 19-20° C., 4 to 5 days; diameter of mycelial growth; read-out: In vitro (ppm) 1, Percent Inhibition
Method: The test compounds (0.25 mL of an appropriate stock solution in acetone) are incorporated into 25 mL minimal media agar [(prepared by autoclaving a solution of 17.5 g Czapek Dox broth (Difco), 7.5 g purified agar or Bacto-agar (Difco), and 500 mL distilled/deionized water, and then adding 50 μL of 1 mg/mL thiamine hydrochloride and 50 μL of 1 mg/mL biotin in 5% ethanol] and plates are prepared. […]
Measured inhibition at 1 ppm, listed per entry.
Reply numerically in %, unit not repeated.

Check out these entries, answers already filled in.
> print(dat)
                                   molecule                              assay.target   measured.attribute  experimental.result
1  CCNC(=O)c1sc2c(c1[Si](C)(C)C)CCCC2 [Example 274]  Gaeumannomyces graminis var. tritici (Ggt)  inhibition at 1 ppm                   10
2  CCN(CC)C(=O)c1c(Cl)cccc1[Si](C)(C)C [Example 39]  Gaeumannomyces graminis var. tritici (Ggt)  inhibition at 1 ppm                   82
3  CCN(CC)C(=O)c1c(Cl)ccc(C)c1[Si](C)(C)C [Example 71]  Gaeumannomyces graminis var. tritici (Ggt)  inhibition at 1 ppm                    8
4  CCN(SC)C(=O)c1sccc1[Si](C)(C)C [Example 272]  Gaeumannomyces graminis var. tritici (Ggt)  inhibition at 1 ppm                   23

Then this molecule:
Prompt: Annotate the molecule C[Si](C)(C)c1cccc(Cl)c1C(=O)NCC1CC1 [Example 150] with its measured inhibition at 1 ppm.
Response: 74

---

Test system: Gaeumannomyces graminis var. tritici (Ggt)
Test Description: In vitro Assay: mycelial growth of Ggt on minimal media agar plates containing test compound
Format: cell-based
Test Context: Gaeumannomyces graminis; 1 ppm in minimal media agar; dark, 19-20° C., 4 to 5 days; diameter of mycelial growth; read-out: In vitro (ppm) 1, Percent Inhibition
# if value of inhibition at 1 ppm reaches 60%, tag yes (1); if it stays below, tag no (0)

A selection of reference data follows.
> print(dat)
                                   molecule    group
1  CCNC(=O)c1c(Cl)cccc1[Si](C)(C)C1CCCCC1 [Example 181]   no (0)
2  CCNC(=O)c1c(Br)csc1[Si](C)(C)C [Example 267]  yes (1)
3  C/C=C/NC(=O)c1c(Cl)cccc1[Si](C)(C)C [Example 113]   no (0)
4  C[Si](C)(C)c1cccc(Cl)c1C(=O)NC1CC1 [Example 34]  yes (1)

Prompt: Determine whether this molecule has inhibition at 1 ppm no lower than 60%: CCN(CC)C(=O)c1c(C=O)ccc(F)c1[Si](C)(C)C [Example 41]
Response: no (0)

---

Measured inhibition at 0.1 ppm, listed per entry.
Test system: Gaeumannomyces graminis var. tritici (Ggt)
Test Description: In vitro Assay: mycelial growth of Ggt on minimal media agar plates containing test compound
Format: cell-based
Test Context: Gaeumannomyces graminis; 0.1 ppm in minimal media agar; dark, 19-20° C., 4 to 5 days; diameter of mycelial growth; read-out: In vitro (ppm) 0.1, Percent Inhibition
Reply numerically in %, unit not repeated.

> print(dat)
                              smiles.str     measured.attribute  result.units  experimental.result
1   C=Cc1ccc([Si](C)(C)C)c(C(=O)NCC)c1Cl  inhibition at 0.1 ppm             %                   69
2  CCN(CC)C(=O)c1c(Cl)cccc1[Si](C)(C)CCl  inhibition at 0.1 ppm             %                   51
3    C[Si](C)(C)c1cccc(Cl)c1C(=O)NC1CCC1  inhibition at 0.1 ppm             %                   24

Then this compound:
Prompt: Annotate the compound "CCNC(=O)c1c(Cl)ccc(Cl)c1[Si](C)(C)C" with its measured inhibition at 0.1 ppm.
Response: 92

---

Measured inhibition at 1 ppm, listed per entry.
Tested on: Gaeumannomyces graminis var. tritici (Ggt)
Test Description: In vitro Assay: mycelial growth of Ggt on minimal media agar plates containing test compound
Type: cell-based
Test Context: Gaeumannomyces graminis; 1 ppm in minimal media agar; dark, 19-20° C., 4 to 5 days; diameter of mycelial growth; read-out: In vitro (ppm) 1, Percent Inhibition
Reply numerically in %, unit not repeated.

Check out these entries, answers already filled in.
> print(dat)
                                   compound   measured.attribute  experimental.result
1  C[Si](C)(C)c1cccc(Cl)c1C(=O)NCc1ccc(C(F)(F)F)cc1  inhibition at 1 ppm                   52
2            CCNC(=O)c1c(C)cccc1[Si](C)(C)C  inhibition at 1 ppm                  100
3    CC(C)(C)OC(=O)Nc1c(Cl)cccc1[Si](C)(C)C  inhibition at 1 ppm                   66

Prompt: Please look at "C[Si](C)(C)c1cccc(Cl)c1C(=O)NCCF" and tell me its recorded inhibition at 1 ppm on Gaeumannomyces graminis var. tritici (Ggt).
Response: 64

Prompt: Please look at CC(C)NC(=O)c1c(F)cccc1[S+]([O-])C(C)(C)C (centres unmarked) and tell me its recorded inhibition at 1 ppm on Gaeumannomyces graminis var. tritici (Ggt).
Response: 56

Prompt: Please look at "CCNC(=O)c1sc(Br)cc1[Si](C)(C)C" and tell me its recorded inhibition at 1 ppm on Gaeumannomyces graminis var. tritici (Ggt).
Response: 61

Prompt: Please look at "CCNC(=O)c1c(I)cccc1[Si](C)(C)C" and tell me its recorded inhibition at 1 ppm on Gaeumannomyces graminis var. tritici (Ggt).
Response: 90

Prompt: Please look at "CCNC(=O)c1c(Cl)cc(Cl)cc1[Si](C)(C)C" and tell me its recorded inhibition at 1 ppm on Gaeumannomyces graminis var. tritici (Ggt).
Response: 32

Prompt: Please look at "CCNC(=O)c1c(Cl)cccc1[Si](C)(C)CC" and tell me its recorded inhibition at 1 ppm on Gaeumannomyces graminis var. tritici (Ggt).
Response: 54

Prompt: Please look at "CCNC(=O)c1c(Cl)ccc(N)c1[Si](C)(C)C" and tell me its recorded inhibition at 1 ppm on Gaeumannomyces graminis var. tritici (Ggt).
Response: 24

Prompt: Please look at CCN(C(=O)c1c(Cl)cccc1[Si](C)(C)C)C(OC)C(C)(C)C (centres unmarked) and tell me its recorded inhibition at 1 ppm on Gaeumannomyces graminis var. tritici (Ggt).
Response: 50

Prompt: Please look at "CC(C)c1ccccc1NC(=O)c1c(Cl)cccc1[Si](C)(C)C" and tell me its recorded inhibition at 1 ppm on Gaeumannomyces graminis var. tritici (Ggt).
Response: 33

---

Measured inhibition at 0.1 ppm, listed per entry.
Test system: Gaeumannomyces graminis var. tritici (Ggt)
Test Description: In vitro Assay: mycelial growth of Ggt on minimal media agar plates containing test compound
Assay type: cell-based
Test Context: Gaeumannomyces graminis; 0.1 ppm in minimal media agar; dark, 19-20° C., 4 to 5 days; diameter of mycelial growth; read-out: In vitro (ppm) 0.1, Percent Inhibition
Reply numerically in %, unit not repeated.

Check out these entries, answers already filled in.
> print(dat)
                                    compound     measured.attribute  experimental.result
 1       CCNC(=O)c1c([Si](C)(C)C)ccc(CO)c1Cl  inhibition at 0.1 ppm                   36
 2    CCN(CC)C(=O)c1c(Cl)cc(C)cc1[Si](C)(C)C  inhibition at 0.1 ppm                    6
 3  CCNC(=O)c1cc([N+](=O)[O-])ccc1[Si](C)(C)C  inhibition at 0.1 ppm                    3
 4  CCCCCCC(C)N(CC)C(=O)c1c(Cl)cccc1[Si](C)(C)C (stereo not drawn)  inhibition at 0.1 ppm                    7
 5  CC1CN(C(=O)c2c(Cl)cccc2[Si](C)(C)C)CC(C)O1 (stereo not drawn)  inhibition at 0.1 ppm                   16
 6    CN(C)NC(=O)c1c([Si](C)(C)C)ccc(Cl)c1Cl  inhibition at 0.1 ppm                    5
 7            CCNC(=O)c1c(Br)csc1[Si](C)(C)C  inhibition at 0.1 ppm                   18
 8                CCNC(=O)c1occc1[Si](C)(C)C  inhibition at 0.1 ppm                    5
 9        CC(C)SC(=O)c1c(Cl)cccc1[Si](C)(C)C  inhibition at 0.1 ppm                   12
10  CC(C)NC(=O)NC(=O)c1c(Cl)cccc1[Si](C)(C)C  inhibition at 0.1 ppm                    4

Then this compound:
Prompt: Annotate the compound "CCN(CC)C(=O)c1c(F)ccc(F)c1[Si](C)(C)C" with its measured inhibition at 0.1 ppm.
Response: 10
